Reference source for all entries: ChEMBL document CHEMBL1137305

# system-tested: Plasmepsin I (Plasmodium falciparum)
# Sequence (P39898 whole entry): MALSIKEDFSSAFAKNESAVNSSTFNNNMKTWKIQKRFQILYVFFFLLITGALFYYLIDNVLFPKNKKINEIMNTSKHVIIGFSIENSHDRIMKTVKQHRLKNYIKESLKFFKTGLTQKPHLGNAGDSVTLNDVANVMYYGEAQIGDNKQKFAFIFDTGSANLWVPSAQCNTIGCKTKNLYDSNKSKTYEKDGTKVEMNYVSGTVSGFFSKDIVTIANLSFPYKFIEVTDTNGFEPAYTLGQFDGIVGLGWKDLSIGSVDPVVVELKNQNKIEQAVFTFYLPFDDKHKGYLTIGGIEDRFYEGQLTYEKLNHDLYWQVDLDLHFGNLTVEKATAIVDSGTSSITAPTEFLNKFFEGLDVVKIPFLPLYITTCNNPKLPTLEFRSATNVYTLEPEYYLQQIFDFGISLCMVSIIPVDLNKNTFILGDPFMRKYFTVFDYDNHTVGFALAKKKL
# experimental-details: Inhibition of Plasmodium falciparum recombinant PLM1
pKi: −log10 of the molar value.
Label scheme for pKi: lower than 7 is f, 7 and above is t.

Please review the entries below; each comes with its answer.
[[record]]
compound = "CCCCNC(=O)C[C@H](O)[C@H](CC(C)C)NC(=O)[C@@H](NC(=O)c1ccc(Oc2ccc(C(=O)N[C@@H](C)C(=O)N[C@@H](CCCCN)C(=O)NCCCC(C)Nc3cc(OC)cc4cccnc34)cc2)cc1)[C@@H](C)CC (stereo not given in full)"
system_tested = "Plasmepsin I (Plasmodium falciparum)"
class = "t"

[[record]]
compound = "CCCCNC(=O)C[C@H](O)[C@H](CC(C)C)NC(=O)[C@@H](NC(=O)c1ccc(Oc2ccc(C(=O)N[C@@H](CC(C)C)C(=O)N[C@@H](CCCCN)C(=O)OCCC)cc2)cc1)C(C)CC (stereo not given in full)"
system_tested = "Plasmepsin I (Plasmodium falciparum)"
class = "t"

[[record]]
compound = "CCCCNC(=O)C[C@H](O)[C@H](CC(C)C)NC(=O)[C@@H](NC(=O)c1ccc(Oc2ccc(C(=O)N[C@@H](CC(C)C)C(=O)N[C@@H](CCCCNC(=O)OC(C)(C)C)C(=O)NCCCC(C)Nc3cc(OC)cc4cccnc34)cc2)cc1)C(C)CC (stereo not given in full)"
system_tested = "Plasmepsin I (Plasmodium falciparum)"
class = "f"


Threshold query (pKi >= 7) on CCCCNC(=O)C[C@H](O)[C@H](CC(C)C)NC(=O)[C@@H](NC(=O)c1ccc(Oc2ccc(C(=O)N[C@@H](CC(C)C)C(=O)NCCCC(C)Nc3cc(OC)cc4cccnc34)cc2)cc1)[C@@H](C)CC (stereo not given in full)
f

Evaluate CCCCNC(=O)C[C@H](O)[C@H](CC(C)C)NC(=O)[C@@H](NC(=O)COc1ccc2ccccc2c1)[C@@H](C)CC : pKi at minimum 7?
f

Hi team, for CCCCNC(=O)C[C@H](O)[C@H](CC(C)C)NC(=O)[C@@H](NC(=O)c1ccc(Oc2ccc(C(=O)N[C@@H](C)C(=O)N[C@@H](C)C(=O)NCCCC(C)Nc3cc(OC)cc4cccnc34)cc2)cc1)[C@@H](C)CC (stereo not given in full) , is the recorded pKi at or above 7?
t

I'd appreciate it if you could say whether CCCCNC(=O)C[C@H](O)[C@H](CC(C)C)NC(=O)[C@@H](NC(=O)c1ccc(Oc2ccc(C(=O)N[C@@H](CC(C)C)C(=O)N[C@@H](CCCCNC(=O)OC(C)(C)C)C(=O)OCCC)cc2)cc1)C(C)CC (stereo not given in full) has pKi at least equal to 7.
t

Form field: pKi at least 7? Entry: CCCCNC(=O)C[C@H](O)[C@H](CC(C)C)NC(=O)[C@@H](NC(=O)c1ccc(Oc2ccc(C(=O)N[C@@H](CC(C)C)C(=O)N[C@@H](CC(C)C)C(=O)NCCCC(C)Nc3cc(OC)cc4cccnc34)cc2)cc1)C(C)CC (stereo not given in full)
t

---

Answer each item with its documented Ki.
# system-tested: Plasmepsin II (Plasmodium falciparum)
# Sequence (P46925 whole entry): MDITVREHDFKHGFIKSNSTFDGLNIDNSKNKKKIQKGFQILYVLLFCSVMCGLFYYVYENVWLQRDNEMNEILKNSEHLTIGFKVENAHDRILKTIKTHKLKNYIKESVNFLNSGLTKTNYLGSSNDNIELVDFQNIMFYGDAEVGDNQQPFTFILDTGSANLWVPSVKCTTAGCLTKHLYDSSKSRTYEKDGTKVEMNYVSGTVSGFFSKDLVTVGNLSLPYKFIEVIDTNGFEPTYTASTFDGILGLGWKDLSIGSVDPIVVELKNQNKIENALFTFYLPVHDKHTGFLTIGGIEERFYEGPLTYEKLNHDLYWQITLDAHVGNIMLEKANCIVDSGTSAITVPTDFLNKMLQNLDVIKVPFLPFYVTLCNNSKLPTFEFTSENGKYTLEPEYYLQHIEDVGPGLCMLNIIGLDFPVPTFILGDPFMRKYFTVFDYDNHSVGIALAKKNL
# experimental-details: Inhibition of Plasmodium falciparum recombinant PLM2
One number for each entry, in nM.

Answered examples (6):
[[record]]
molecule = "CCCCNC(=O)C[C@H](O)[C@H](CC(C)C)NC(=O)[C@@H](NC(=O)c1ccc(Oc2ccc(C(=O)N[C@@H](CC(C)C)C(=O)N[C@@H](CCCCN)C(=O)OCCC)cc2)cc1)C(C)CC (stereo not given in full)"
measure_name = "Ki"
value_observed = 9.9

[[record]]
molecule = "CCCCNC(=O)C[C@H](O)[C@H](CC(C)C)NC(=O)[C@@H](NC(=O)c1ccc(Oc2ccc(C(=O)N[C@@H](CC(C)C)C(=O)N[C@@H](CC(C)C)C(=O)NCCCC(C)Nc3cc(OC)cc4cccnc34)cc2)cc1)C(C)CC (stereo not given in full)"
measure_name = "Ki"
value_observed = 103

[[record]]
molecule = "CCCCNC(=O)C[C@H](O)[C@H](CC(C)C)NC(=O)[C@@H](NC(=O)c1ccc(Oc2ccc(C(=O)N[C@@H](CC(C)C)C(=O)N[C@@H](CCCCNC(=O)OC(C)(C)C)C(=O)NCCCC(C)Nc3cc(OC)cc4cccnc34)cc2)cc1)C(C)CC (stereo not given in full)"
measure_name = "Ki"
value_observed = 403

[[record]]
molecule = "CCCCNC(=O)C[C@H](O)[C@H](CC(C)C)NC(=O)[C@@H](NC(=O)COc1ccc2ccccc2c1)[C@@H](C)CC"
measure_name = "Ki"
value_observed = 58.9

[[record]]
molecule = "CCCCNC(=O)C[C@H](O)[C@H](CC(C)C)NC(=O)[C@@H](NC(=O)c1ccc(Oc2ccc(C(=O)N[C@@H](CC(C)C)C(=O)N[C@@H](C)C(=O)NCCCC(C)Nc3cc(OC)cc4cccnc34)cc2)cc1)[C@@H](C)CC (stereo not given in full)"
measure_name = "Ki"
value_observed = 26.3

[[record]]
molecule = "CCCCNC(=O)C[C@H](O)[C@H](CC(C)C)NC(=O)[C@@H](NC(=O)c1ccc(Oc2ccc(C(=O)N[C@@H](C)C(=O)N[C@@H](C)C(=O)NCCCC(C)Nc3cc(OC)cc4cccnc34)cc2)cc1)[C@@H](C)CC (stereo not given in full)"
measure_name = "Ki"
value_observed = 3.9


Need Ki for each of these molecules.
1. CCCCNC(=O)C[C@H](O)[C@H](CC(C)C)NC(=O)[C@@H](NC(=O)c1ccc(Oc2ccc(C(=O)N[C@@H](C)C(=O)N[C@@H](CCCCN)C(=O)NCCCC(C)Nc3cc(OC)cc4cccnc34)cc2)cc1)[C@@H](C)CC (stereo not given in full)
2. CCCCNC(=O)C[C@H](O)[C@H](CC(C)C)NC(=O)[C@@H](NC(=O)c1ccc(Oc2ccc(C(=O)N[C@@H](CC(C)C)C(=O)N[C@@H](CCCCNC(=O)OC(C)(C)C)C(=O)OCCC)cc2)cc1)C(C)CC (stereo not given in full)

[10.6, 11]

Hey, quick one: what's Ki for each of these?
1. CCCCNC(=O)C[C@H](O)[C@H](CC(C)C)NC(=O)[C@@H](NC(=O)c1ccc(Oc2ccc(C(=O)NCCCC(C)Nc3cc(OC)cc4cccnc34)cc2)cc1)[C@@H](C)CC (stereo not given in full)
2. CCCCNC(=O)C[C@H](O)[C@H](CC(C)C)NC(=O)[C@@H](NC(=O)c1ccc(Oc2ccc(C(=O)N[C@@H](CC(C)C)C(=O)NCCCC(C)Nc3cc(OC)cc4cccnc34)cc2)cc1)[C@@H](C)CC (stereo not given in full)

[11.2, 12.1]
